# assayMethodText: Human HepG2 cell viability assay in 384 well format
# Type: toxicity, cell-based
# Design: dose 125 nL, time 70.5 hour; concentration not given beside the values
# condition: HepG2 cells, read-out: Inhibition
readoutKind: cytotoxicity at 70.5 h (%)
Give bare numbers, in %.

Reference set (5 entries):
O=C(O)c1ccc(S(=O)(=O)Nc2ccccc2CC(F)(F)F)c(F)c1	-15.6
O=C1CC2(CCSC2)C(=O)N1CCCc1ccccc1 (stereo unspecified)	-5.63
COCCCN(C)c1nc(-c2ccncc2)nc2c1CCN(C(C)=O)C2	-7.86
Cc1cc(NC(=O)CNc2ccc(Br)cc2F)on1	2.93
NC(=O)CN1CCCN(C(=O)c2ccn(-c3ccc(F)cc3)n2)CC1	6.29

Alright, here's another compound for you.
## Input # cytotoxicity at 70.5 h lookup, item O=C1CN(C(=O)C2CN(c3cccc(Cl)c3)CCO2)CCN1 (stereo unspecified)
## Output -7.93

Data provenance is ChEMBL document CHEMBL3507680.
